Dual specificity tyrosine-phosphorylation-regulated kinase 4 (Homo sapiens) measurements of IC50, listed per entry.
Sequence (Q9NR20 whole entry): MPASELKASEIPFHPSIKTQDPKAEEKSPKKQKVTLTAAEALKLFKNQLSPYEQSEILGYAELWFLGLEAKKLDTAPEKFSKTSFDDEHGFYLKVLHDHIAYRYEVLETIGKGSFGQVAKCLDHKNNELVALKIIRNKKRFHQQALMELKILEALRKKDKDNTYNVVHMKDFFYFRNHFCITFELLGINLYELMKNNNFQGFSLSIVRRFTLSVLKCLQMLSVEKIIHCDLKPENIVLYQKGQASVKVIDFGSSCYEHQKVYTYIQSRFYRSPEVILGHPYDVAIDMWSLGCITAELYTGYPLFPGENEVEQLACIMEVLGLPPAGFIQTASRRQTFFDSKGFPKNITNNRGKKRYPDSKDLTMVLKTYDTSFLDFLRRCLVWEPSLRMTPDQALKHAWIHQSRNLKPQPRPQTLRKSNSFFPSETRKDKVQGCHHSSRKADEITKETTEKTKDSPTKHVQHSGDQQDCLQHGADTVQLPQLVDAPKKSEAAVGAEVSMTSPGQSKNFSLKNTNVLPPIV
property label: IC50 (nM)

Some molecules with known IC50 results, for comparison:
>>> recorded_result("O=C1NC(NC2CCNC2=O)=N/C1=C\\c1ccc2ncsc2c1 (racemic)")
3120
>>> recorded_result("O=C1NC(NC2COC2)=N/C1=C\\c1ccc2ncsc2c1")
2160
>>> recorded_result("O=C1NC(NCC(O)C2CCCCC2)=N/C1=C\\c1ccc2ncsc2c1 (racemic)")
319
>>> recorded_result("COC12CC3CC(CC(NC4=N/C(=C\\c5ccc6ncsc6c5)C(=O)N4)(C3)C1)C2")
284
>>> recorded_result("CO[C@H]1CCCC[C@H]1NC1=N/C(=C\\c2ccc3ncsc3c2)C(=O)N1 (racemic)")
731
>>> recorded_result("O=C1NC(Nc2cccc(OC(F)F)c2)=N/C1=C\\c1ccc2ncsc2c1")
2730

(I) Cn1cnc2ccc(/C=C3\N=C(NC4CCCCC4)NC3=O)cc21
(II) COC(=O)[C@@H](Cc1ccccc1)NC1=N/C(=C\c2ccc3ncsc3c2)C(=O)N1
Request: # return whichever of I and II has the smaller IC50 State the label of the item chosen.
Result: I
(I: 1110 nM, II: 6820 nM)

(a) O=C1NC(N[C@@H](CO)Cc2ccccc2)=N/C1=C\c1ccc2ncsc2c1
(b) O=C1NC(NC23CC4CC(CC(NC(=O)C5CC5)(C4)C2)C3)=N/C1=C\c1ccc2ncsc2c1
Request: From the recorded data, which exceeds the other in IC50: a or b ? Refer to your chosen item by its label in the answer.
Result: a
(a: 1150 nM, b: 270 nM)

(I) O=C1NC(NC2CCCCC2)=N/C1=C\c1ccc2c(c1)OCO2
(II) CO[C@H]1CCCC[C@@H]1NC1=N/C(=C\c2ccc3ncsc3c2)C(=O)N1
(III) Cc1cnc(CNC2=N/C(=C\c3ccc4ncsc4c3)C(=O)N2)cn1
(IV) CC(C)[C@@H]1CC[C@@H](C)C[C@H]1NC1=N/C(=C\c2ccc3ncsc3c2)C(=O)N1
Request: Arrange the 4 molecules from largest to smallest IC50. State the ranking by listing the labels in the requested order.
Result: III, IV, I, II

====

pIC50: −log10 of the molar value.
Notes on pIC50 obtained with Cyclin-dependent kinase 5/CDK5 activator 1 (Homo sapiens, UniProt Q00535).
Sequence (Q00535 whole entry): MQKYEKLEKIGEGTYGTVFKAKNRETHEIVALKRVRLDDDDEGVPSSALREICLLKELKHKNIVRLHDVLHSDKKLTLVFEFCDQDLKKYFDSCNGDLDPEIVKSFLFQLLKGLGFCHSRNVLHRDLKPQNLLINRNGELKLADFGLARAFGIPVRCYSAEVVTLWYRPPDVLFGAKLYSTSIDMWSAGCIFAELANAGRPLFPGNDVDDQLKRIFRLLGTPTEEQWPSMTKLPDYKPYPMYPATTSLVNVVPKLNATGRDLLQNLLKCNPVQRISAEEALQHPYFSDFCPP
Sequence (Q15078 whole entry, further chain): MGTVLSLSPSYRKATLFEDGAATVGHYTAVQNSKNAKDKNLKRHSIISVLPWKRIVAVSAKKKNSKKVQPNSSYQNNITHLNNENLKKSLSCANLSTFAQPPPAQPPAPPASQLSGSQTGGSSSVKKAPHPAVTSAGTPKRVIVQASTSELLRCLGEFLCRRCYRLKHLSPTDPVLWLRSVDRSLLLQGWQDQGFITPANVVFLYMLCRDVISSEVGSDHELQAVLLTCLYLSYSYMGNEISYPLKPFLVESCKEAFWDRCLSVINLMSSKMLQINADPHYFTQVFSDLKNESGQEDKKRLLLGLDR

Some solved cases for reference:
>>> recorded_result("O=C1NC(NC23CC4CC(CC(C4)C2)C3)=N/C1=C\\c1ccc2[nH]ccc2c1")
"< 5.00"
>>> recorded_result("Cc1nc2ccc(/C=C3\\N=C(NC4CCCCC4)NC3=O)cc2s1")
"< 5.00"
>>> recorded_result("COC[C@@H](NC1=N/C(=C\\c2ccc3ncsc3c2)C(=O)N1)c1ccccc1")
"< 5.00"
>>> recorded_result("Cn1ccc2cc(/C=C3\\N=C(NC4CCCCCC4)NC3=O)ccc21")
"< 5.00"
>>> recorded_result("CN(C)C12CC3CC(CC(NC4=N/C(=C\\c5ccc6ncsc6c5)C(=O)N4)(C3)C1)C2")
5.30
>>> recorded_result("COC(=O)[C@H](Cc1ccccc1)NC1=N/C(=C\\c2ccc3ncsc3c2)C(=O)N1")
"< 5.00"

Request: Param readout = pIC50; param system = Cyclin-dependent kinase 5/CDK5 activator 1 (Homo sapiens, UniProt Q00535); param query = "Cc1nc2ccc(/C=C3\N=C(NC4CCCCCC4)NC3=O)cc2s1" ; response: value
Result: < 5.00

Request: Form field - read-out: pIC50; system: Cyclin-dependent kinase 5/CDK5 activator 1 (Homo sapiens, UniProt Q00535); submitted item: "CN1CCC(CNC2=N/C(=C\c3ccc4ncsc4c3)C(=O)N2)CC1"
Result: < 5.00

Request: Provide the documented pIC50 with Cyclin-dependent kinase 5/CDK5 activator 1 (Homo sapiens, UniProt Q00535) as the system for O=C1NC(NCC(O)C2CCCCC2)=N/C1=C\c1ccc2ncsc2c1 (racemic)
Result: < 5.00

Request: Give pIC50 (Cyclin-dependent kinase 5/CDK5 activator 1 (Homo sapiens, UniProt Q00535)) of the following compound: "O=C1NC(NCc2ccccc2)=N/C1=C\c1ccc2ncsc2c1"
Result: 5.21
